The reported numbers originate from the supplement of paper PMC7801607.

System: CHO
method summary: % viability of CHO cells (MTT); higher = less toxic
condition notes: 20 µM; 48 h
Measured % viability of CHO cells accompanies every entry in the list below.
The answer should read as a number with its unit following.

Here are 5 compounds together with their reported answers.
>>> experimental_result("CCc1nc(N)nc(N)c1C#CCc1ccccc1")
"92.5%"
>>> experimental_result("C[C@H](c1cccc2ccccc12)N(C)Cc1ccccc1")
"116%"
>>> experimental_result("C[C@H]1[C@@H](c2cccc(C(F)(F)F)c2)OC(=O)N1C(=O)NCc1cncc2ccccc12")
"118%"
>>> experimental_result("Cc1nc(N(C)C(=O)Cc2ccc(-c3ccccn3)cc2)sc1S(N)(=O)=O")
"59.1%"
>>> experimental_result("COc1ccc2sc3c(c2c1)NC(C)CNC3=O (configuration not stated)")
"115%"

**Query** Which % viability of CHO cells value belongs to Nc1nc(O)ncc1F ?
**Result** 21.7%

**Query** Which % viability of CHO cells value belongs to OCCCCn1cnc2c(O)nc(NCc3ccc(Cl)c(Cl)c3)nc21 ?
**Result** 106%

----------
System: Plasmodium falciparum NF54 stage IV/V gametocytes
method summary: % inhibition of gametocyte viability (luciferase reporter); higher = more inhibition
condition notes: 5 µM; 48 h
measured metric: % inhibition of gametocyte viability

>>> experimental_result("O=C(c1ccccc1)N1CCN(c2ccccc2NC(=O)C(Cl)(Cl)Cl)CC1")
"< 0%"
>>> experimental_result("CC[C@H](CO)Nc1nc(NCc2ccccc2)c2ncn(C(C)C)c2n1")
"< 0%"

Kindly review the next compound as well.
**Query** Which % inhibition of gametocyte viability value belongs to CC(=O)N[C@H](C)C(=O)N[C@H](Cc1ccccc1)C(=O)O ?
**Result** < 0%

----------
Measured % inhibition of gametocyte viability accompanies every entry in the list below.
Test system: Plasmodium falciparum NF54 stage IV/V gametocytes
method summary: % inhibition of gametocyte viability (luciferase reporter); higher = more inhibition
condition notes: 5 µM; 48 h

Here are 3 compounds together with their reported answers.
>>> experimental_result("COc1ccc2c(c1OC)C(=O)OC2C1c2c(cc3c(c2OC)OCO3)CCN1C (stereo not given)")
"9.42%"
>>> experimental_result("CC(=O)N1c2ccccc2NC2=C(C(=O)CC(C)(C)C2)C1c1ccc(OCc2ccccc2)cc1 (stereo not given)")
"< 0%"
>>> experimental_result("Cc1c[nH]c(=O)nc1NCc1ccccc1")
"4.07%"

Kindly review the next compound as well.
**Query** Which % inhibition of gametocyte viability value belongs to CCCNc1ccc(S(=O)(=O)Nc2cc(C)on2)cc1 ?
**Result** < 0%

----------
Test system: HepG2-A16-CD81;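 also: HepG2-A16-CD81 hepatoma cells plated as in the liver-stage assay but without sporozoites, with DMSO wells as negative and 25 µM puromycin as positive control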
method summary: % inhibition of HepG2 viability (CellTiter-Glo); higher = more toxic
condition notes: 5 µM
measured metric: % inhibition of HepG2 viability (%)
Report the figure in % without appending any unit label.

**Query** Which % inhibition of HepG2 viability value belongs to CCNC(=O)Nc1cc2c(-c3ccnc(C)c3)ccc(CNC(=O)OC)c2cn1 ?
**Result** 5.56

**Query** Which % inhibition of HepG2 viability value belongs to O=C(Nc1ccc(F)cc1)c1nn(-c2ccccc2)c(=O)cc1Cl ?
**Result** 2.98

**Query** Which % inhibition of HepG2 viability value belongs to C/C(=N\NC(=O)C1CC1c1ccccc1)c1ccc(NC(=O)c2ccco2)cc1 (configuration not stated) ?
**Result** -5.96

**Query** Which % inhibition of HepG2 viability value belongs to COc1cc(C(C(=O)NC2CCCCC2)N(C(=O)Cc2c[nH]c3ccccc23)c2ccc(C(C)C)cc2)cc(OC)c1OC (configuration not stated) ?
**Result** 1.92

**Query** Which % inhibition of HepG2 viability value belongs to COc1ccc(CNC(=O)C(NS(=O)(=O)c2ccc3nc(C)sc3c2)C(C)C)cc1 (configuration not stated) ?
**Result** 3.43

**Query** Which % inhibition of HepG2 viability value belongs to NC(=O)c1ccc(I)c([N+](=O)[O-])c1 ?
**Result** 14.3

**Query** Which % inhibition of HepG2 viability value belongs to CCC[C@@H]1C[C@@H](C(=O)N[C@@H]([C@H]2O[C@H](SC)[C@H](O)[C@@H](O)[C@H]2O)[C@H](C)Cl)N(C)C1 ?
**Result** 5.96

**Query** Which % inhibition of HepG2 viability value belongs to O=C(CCCC(F)(F)F)N1CCC(c2nc(-c3nccs3)no2)CC1 ?
**Result** 8.03

**Query** Which % inhibition of HepG2 viability value belongs to Oc1c(C(Nc2ccccn2)c2ccccc2)ccc2cccnc12 (configuration not stated) ?
**Result** 10.2

**Query** Which % inhibition of HepG2 viability value belongs to CC(=O)O[C@H]1C[C@@]2(C)[C@@H](C[C@@H](O)[C@H]3[C@@]4(C)CC[C@@H](O)[C@@H](C)[C@@H]4CC[C@@]32C)/C1=C(\CCC=C(C)C)C(=O)O ?
**Result** -0.207

**Query** Which % inhibition of HepG2 viability value belongs to Cc1ccc(Oc2ccccc2-c2csc(NC3=NCCCN3)n2)c(C)c1 ?
**Result** 13

**Query** Which % inhibition of HepG2 viability value belongs to O=c1cc(Nc2ccc3ccccc3c2)[nH]c(=O)[nH]1 ?
**Result** 4.08

**Query** Which % inhibition of HepG2 viability value belongs to N[C@H]1CCC[C@H]1C(=O)O ?
**Result** -8.85

**Query** Which % inhibition of HepG2 viability value belongs to OB1OCc2cc(Cl)ccc21 ?
**Result** -4.78

**Query** Which % inhibition of HepG2 viability value belongs to O=c1oc2ccc(Br)cc2cc1CSc1ncc[nH]1 ?
**Result** 3.9

**Query** Which % inhibition of HepG2 viability value belongs to CN(C)CCNC(=O)c1cccc2cccnc12 ?
**Result** -1.05

**Query** Which % inhibition of HepG2 viability value belongs to CCCCCOc1ccc(/C=C2\Oc3c(ccc(O)c3O)C2=O)c(O)c1 ?
**Result** 3.16
